Documented IC50 across a set of molecules
System: T. cruzi Dm28c-Luc intracellular amastigotes
method summary: Anti-T. cruzi in vitro assay, intracellular amastigotes in Vero cells (luminescence)
Format: cell-based, Trypanosoma cruzi
condition summary: Trypanosoma cruzi, Vero, intracellular amastigotes; 6 − Log10(IC50); read-out: pIC50 (potency) (converted)
Lab book: enter the figure in µM, no units written.

molecule	IC50, µM
O=C(Cn1ccnc1[N+](=O)[O-])NCc1ccccc1 [Bz, Benznidazole, reference compound]	2.51
Nc1c(C2=NCCN2)cnn1-c1cccc(C(F)(F)F)c1	63.1

Now let's try a different one.
For the molecule shown here, Cc1cccc(-n2cc(C3=NCCN3)cn2)c1 , give the reported IC50.
25.1

---

method summary: Cytotoxicity assay, Vero cells (CellTiter-Glo)
Type: cell-based
condition summary: African green monkey, mean ± SD
Documented CC50 at 72 h across a set of compounds

Consider the reported CC50 at 72 h for these compounds:
compound	CC50 at 72 h
Nc1c(C2=NCCN2)cnn1-c1cc(C(F)(F)F)cc(C(F)(F)F)c1	464 µM
Nc1c(C2=NCCN2)cnn1-c1ccc(Cl)cc1Cl	> 500 µM
Cc1ccc(-n2cc(C3=NCCN3)cn2)cc1	> 500 µM
FC(F)(F)c1cc(-n2cc(C3=NCCN3)cn2)cc(C(F)(F)F)c1	114 µM
Nc1c(C2=NCCN2)cnn1-c1ccc(C(F)(F)F)cc1	> 500 µM

For the compound shown here, Cc1ccc(-n2ncc(C3=NCCN3)c2N)cc1 , give the reported CC50 at 72 h.
> 500 µM

For the compound shown here, Nc1c(C2=NCCN2)cnn1-c1cccc(C(F)(F)F)c1 , give the reported CC50 at 72 h.
> 500 µM

For the compound shown here, FC(F)(F)c1ccc(-n2cc(C3=NCCN3)cn2)cc1 , give the reported CC50 at 72 h.
244 µM

For the compound shown here, Cc1ccc(-n2ncc(C3=NCCN3)c2N)cc1Cl , give the reported CC50 at 72 h.
> 500 µM

For the compound shown here, Nc1c(C2=NCCN2)cnn1-c1cccc(F)c1 , give the reported CC50 at 72 h.
> 500 µM

For the compound shown here, O=C(Cn1ccnc1[N+](=O)[O-])NCc1ccccc1 [Bz, Benznidazole, reference compound] , give the reported CC50 at 72 h.
> 500 µM

For the compound shown here, Cc1cccc(-n2ncc(C3=NCCN3)c2N)c1 , give the reported CC50 at 72 h.
> 500 µM

For the compound shown here, Cc1cccc(-n2cc(C3=NCCN3)cn2)c1 , give the reported CC50 at 72 h.
> 500 µM

For the compound shown here, Cc1cc(Cl)ccc1-n1ncc(C2=NCCN2)c1N , give the reported CC50 at 72 h.
> 500 µM

---

Test system: T. cruzi Dm28c-Luc intracellular amastigotes
method summary: Anti-T. cruzi in vitro assay, intracellular amastigotes in Vero cells (luminescence)
Assay type: cell-based, Trypanosoma cruzi
condition summary: Trypanosoma cruzi; 72 h, Dm28c-Luc in Vero cells, mean ± SD
measured quantity: IC90

Consider the reported IC90 for these compounds:
chemical structure	assayed target	result value
Cc1cc(Cl)ccc1-n1ncc(C2=NCCN2)c1N	T. cruzi Dm28c-Luc intracellular amastigotes	> 100 µM
Nc1c(C2=NCCN2)cnn1-c1cc(C(F)(F)F)cc(C(F)(F)F)c1	T. cruzi Dm28c-Luc intracellular amastigotes	80.1 µM

Now let's try a different one.
For the compound shown here, Cc1ccc(-n2ncc(C3=NCCN3)c2N)cc1 , give the reported IC90.
> 100 µM

All values here come from paper PMC12348844.
